details: 323.15 K; 100 kPa
Metric: viscosity (mPa·s)
Number in mPa·s, nothing else.

Structure: CCCCC1CCCCC1
viscosity (mPa·s): 0.835

Structure: OCC(F)(F)C(F)F
viscosity (mPa·s): 2.156

Structure: CC(C)O
viscosity (mPa·s): 0.995

Look up viscosity: `CCn1cc[n+](C)c1.N#C[S-]`
11.49

---

assay: xn = mol fraction of the nth substance listed; conditions: 323.15 K; 101 kPa; x1 = 0.1
Mark each entry 1 if its viscosity sits below 2 mPa·s, and -1 for all others.

Worked cases, answers included:
Compound: CCOC(=O)[C@@H](O)[C@H](O)C(=O)OCC + CC(C)CCO
Group label: -1
//
Compound: [Li+].[O-][Cl+3]([O-])([O-])[O-] + O=S1(=O)CCCC1
Group label: -1
//
Compound: CCOC(=O)[C@@H](O)[C@H](O)C(=O)OCC + CCCO
Group label: 1

Moving on to another compound below.
Problem: For the compound CC(C)O + O , is viscosity under 2 mPa·s?
1

Origin of values: the CheMixHub viscosity set
